Hello, the source for this data is patent US10253078, in case you need it.

Examples of binders with documented EC50, hGIP-R level of cAMP (HEK293 cells expressing human GIP R) follow.
Target: T1, human GIP receptor (human, UniProt P48546 22-466)
T1 sequence (looked up): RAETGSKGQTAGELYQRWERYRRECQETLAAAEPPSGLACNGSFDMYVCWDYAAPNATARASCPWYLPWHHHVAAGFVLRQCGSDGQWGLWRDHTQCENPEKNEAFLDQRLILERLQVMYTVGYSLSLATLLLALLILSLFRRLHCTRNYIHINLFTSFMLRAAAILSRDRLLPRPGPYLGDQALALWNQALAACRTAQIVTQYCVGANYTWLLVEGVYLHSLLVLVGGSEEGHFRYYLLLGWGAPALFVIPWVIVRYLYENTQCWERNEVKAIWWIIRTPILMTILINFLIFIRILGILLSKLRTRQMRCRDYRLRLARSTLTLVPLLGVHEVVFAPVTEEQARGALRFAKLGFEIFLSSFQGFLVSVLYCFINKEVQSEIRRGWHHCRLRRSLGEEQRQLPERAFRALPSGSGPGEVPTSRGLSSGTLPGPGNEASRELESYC
Assay: cell-based or functional assay
Starred links: 1 amine or outer side, 2 acyl side, 3 side chain; linkers in the order of their positions; H or OH if unused. Non-standard residues stand in square brackets, D forms with d. Groups on a side chain read outwards from the residue. *: point of attachment. C20 diacid = O=C(O)CCCCCCCCCCCCCCCCCCC(=O)*; γGlu = O=C(O)[C@H](CCC(=O)[*:2])N[*:1]; Aib = CC(C)(N)C(=O)O
EXPERIMENTAL ENDPOINT: EC50, hGIP-R level of cAMP (HEK293 cells expressing human GIP R) (pM)

BINDER	UNIT NAME	TEST RESULT
H-Y[Aib]EGTFISDYSIELEKK([Peg3-Peg3-γGlu-C20 diacid])AQRAFVEWLLAQGPSSGAPPPS-NH2 [Compound 12]	pM	9
H-Y[Aib]EGTFISDYSIELDKK([Peg3-Peg3-γGlu-C20 diacid])AAQDFVNWLLAQGPSSGAPPPS-NH2 [Compound 10]	pM	7
H-Y[dA]EGTFISDYSIELDKK([Peg3-Peg3-γGlu-C20 diacid])AQRAFIEWLLAQGPSSGAPPPS-NH2 [Compound 36]	pM	6
